# Study system: WT/R232 STING protein (Homo sapiens, UniProt Q86WV6, H232R)
# Sequence (Q86WV6 whole entry H232R): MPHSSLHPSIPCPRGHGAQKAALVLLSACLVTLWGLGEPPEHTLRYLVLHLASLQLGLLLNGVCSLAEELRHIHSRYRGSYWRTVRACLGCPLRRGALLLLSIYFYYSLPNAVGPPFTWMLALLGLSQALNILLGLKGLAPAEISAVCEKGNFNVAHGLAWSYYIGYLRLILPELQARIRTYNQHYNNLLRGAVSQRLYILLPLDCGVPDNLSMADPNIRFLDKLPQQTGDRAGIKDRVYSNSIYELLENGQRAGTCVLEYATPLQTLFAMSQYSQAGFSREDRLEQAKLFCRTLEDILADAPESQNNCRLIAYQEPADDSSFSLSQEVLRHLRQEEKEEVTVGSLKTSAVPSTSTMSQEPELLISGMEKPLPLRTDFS
# Experiment description: Luciferase reporter assay in HEK293T-hSTING-Luciferase cells, WT/R232
# Condition context: 20 hr stimulation, read-out: R232 Activity (EC50 range)
# Text: • a) Stable STING expressing cells—Stable HEK293T STING-expressing cell lines were generated using plasmids purchased from Invivogen, Calif., USA, that contain STING cDNA cloned into the pUNO-1 vector under hEF1-HTLV promoter and containing the Blasticidin selection cassette. […]
The following compounds are listed with their measured EC50 values.

- Compound: "CC1Sc2ccc(C(=O)NCc3ccco3)cc2N(Cc2ccccc2)C1=O (centres unmarked) [Example 134]"
  EC50: "1 to 10 µM"
- Compound: "COc1cc(CN2C(=O)C(C)Sc3ncc(C(=O)NCc4c(F)cc(F)cc4F)cc32)ccn1 (centres unmarked) [Example 206]"
  EC50: "1 to 10 µM"
- Compound: "O=C(NCC1CCCO1)c1ccc2c(c1)N(Cc1c(F)cccc1Cl)C(=O)CS2 (centres unmarked) [Example 130]"
  EC50: "> 10 µM"
- Compound: "O=C(NCc1ccco1)c1ccc2c(c1)N(CC(=O)N1CCc3ccccc31)C(=O)CS2 [Example 3]"
  EC50: "> 10 µM"
- Compound: "O=C(NCc1c(F)cc(F)cc1F)c1cnc2c(c1)N(Cc1c(F)cccc1Cl)C(=O)CS2 [Example 178]"
  EC50: "< 1 µM"
- Compound: "CN1CCCC(CN2C(=O)CSc3ccc(C(=O)NCc4ccco4)cc32)C1 (centres unmarked) [Example 98]"
  EC50: "> 10 µM"
- Compound: "Cc1cccc(CNC(=O)c2ccc3c(c2)N(Cc2cc(F)cc(F)c2)C(=O)C(C)S3)c1 (centres unmarked) [Example 144]"
  EC50: "< 1 µM"
- Compound: "O=C(NCc1cccc(F)c1)c1ccc2c(c1)N(Cc1c(F)cccc1Cl)C(=O)CS2 [Example 38]"
  EC50: "1 to 10 µM"
